Reported IC50 values for the following molecules.
- Target entity: HIF-2α (Homo sapiens)
- Sequence (Q99814 whole entry): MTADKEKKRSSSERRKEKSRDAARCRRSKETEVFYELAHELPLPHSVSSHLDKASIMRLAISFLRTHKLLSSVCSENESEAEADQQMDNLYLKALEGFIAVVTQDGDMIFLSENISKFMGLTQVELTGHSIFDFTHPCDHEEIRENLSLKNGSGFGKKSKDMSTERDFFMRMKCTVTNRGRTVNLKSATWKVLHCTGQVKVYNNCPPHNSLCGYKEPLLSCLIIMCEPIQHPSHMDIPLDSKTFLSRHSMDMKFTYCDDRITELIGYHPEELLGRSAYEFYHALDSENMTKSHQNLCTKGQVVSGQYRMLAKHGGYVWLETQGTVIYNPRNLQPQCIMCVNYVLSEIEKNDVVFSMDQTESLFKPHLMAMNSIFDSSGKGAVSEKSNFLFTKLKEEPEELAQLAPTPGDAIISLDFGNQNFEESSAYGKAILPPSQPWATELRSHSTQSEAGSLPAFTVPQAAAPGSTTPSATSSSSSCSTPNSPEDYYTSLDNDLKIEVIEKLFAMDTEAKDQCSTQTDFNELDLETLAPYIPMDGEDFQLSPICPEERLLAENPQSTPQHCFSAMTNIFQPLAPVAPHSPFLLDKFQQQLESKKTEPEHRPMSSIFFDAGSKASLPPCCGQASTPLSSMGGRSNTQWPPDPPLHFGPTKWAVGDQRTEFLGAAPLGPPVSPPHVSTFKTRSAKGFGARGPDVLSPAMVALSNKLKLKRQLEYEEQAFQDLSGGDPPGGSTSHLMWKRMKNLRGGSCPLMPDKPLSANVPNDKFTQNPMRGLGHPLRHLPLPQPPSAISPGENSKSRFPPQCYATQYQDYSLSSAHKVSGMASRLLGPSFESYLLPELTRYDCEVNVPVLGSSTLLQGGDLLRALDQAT
- Method: HIF-2α Luciferase Reporter Assay (serum free) in HIF-Luc-786-0 cells
- Type: cell-based
- Cond: Opti-MEM, 786-0 reporter cells, 20 hours incubation
Measurement type: IC50

molecule=O[C@H]1c2c(C(F)(F)F)nn([C@H]3C[C@@H](F)[C@@H](F)[C@@H](F)C3)c2[C@@H](F)[C@H]1F target_entity="HIF-2α (Homo sapiens)" recorded_value="100 to 1000 nM"
molecule=O[C@H]1c2c(C(F)(F)F)nn(Cc3cc(C(F)(F)F)no3)c2CCC1(F)F target_entity="HIF-2α (Homo sapiens)" recorded_value="> 1000 nM"
molecule=C[C@H](OC(F)F)[C@H]1C[C@H](n2nc(C(F)(F)F)c3c2CC(F)(F)[C@H]3O)C1 target_entity="HIF-2α (Homo sapiens)" recorded_value="100 to 1000 nM"
molecule="CC(CCn1nc(C(F)(F)F)c2c1CCC(F)(F)[C@H]2O)OC(F)F (stereo partly shown)" target_entity="HIF-2α (Homo sapiens)" recorded_value="< 100 nM"
molecule=O[C@H]1c2c(C(F)(F)F)nn(C3CCC(F)(F)CC3)c2CC1(F)F target_entity="HIF-2α (Homo sapiens)" recorded_value="< 100 nM"
molecule=O[C@H]1c2c(C(F)(F)F)nn(CCC3CC3)c2CCC1(F)F target_entity="HIF-2α (Homo sapiens)" recorded_value="100 to 1000 nM"
molecule="CO[C@H](CCn1nc(C(F)(F)F)c2c1[C@@H](F)C(F)(F)[C@H]2O)C(F)(F)F (single isomer, unassigned) [148/149 DIAST-2]" target_entity="HIF-2α (Homo sapiens)" recorded_value="< 100 nM"
molecule="O[C@H]1c2c(C(F)(F)F)nn(CCC3CC3(F)F)c2CCC1(F)F (stereo partly shown)" target_entity="HIF-2α (Homo sapiens)" recorded_value="< 100 nM"
molecule="COCC(C)CCn1nc(C(F)(F)F)c2c1CCC(F)(F)[C@H]2O (stereo partly shown)" target_entity="HIF-2α (Homo sapiens)" recorded_value="> 1000 nM"
molecule="CCC(CCn1nc(C(F)(F)F)c2c1CCC(F)(F)[C@H]2O)C(F)(F)F (stereo partly shown)" target_entity="HIF-2α (Homo sapiens)" recorded_value="100 to 1000 nM"
